Every entry's value here was drawn from patent US20190307843A1.

- test: Pharmacokinetic profile in mice following a 10-mg/kg subcutaneous dose
- Type: in vivo
- assay_setup: mouse, plasma, sc
Starred links: 1 amine or outer side, 2 acyl side, 3 side chain; linkers in the order of their positions; H or OH if unused. Positions of bridges follow the written chain, without caps; N, C: chain ends. Non-standard residues stand in square brackets, D forms with d. Residues, ends and D or L forms follow the SMILES beside them. *: point of attachment. Orn(4R-OH,5R-OCH2CH2NMe3+) = C[N+](C)(C)CCO[C@@H](N[*:3])[C@H](O)C[C@H](N[*:1])C(=O)[*:2]; pTerphenylCO(4''-OnC5H11) = CCCCCOc1ccc(-c2ccc(-c3ccc(C(=O)*)cc3)cc2)cc1; hTyr(3S-OH,4S-OH) = N[C@H](C(=O)O)[C@H](O)[C@@H](O)c1ccc(O)cc1; Pro(3S-OH,4S-Me) = C[C@H]1CN[C@H](C(=O)O)[C@H]1O; Hyp = O=C(O)[C@@H]1C[C@@H](O)CN1
readout_name: half-life

Prompt: Using the record for CCCCCOc1ccc(-c2ccc(-c3ccc(C(=O)N[C@H]4C[C@@H](O)[C@@H](OCC[N+](C)(C)C)NC(=O)[C@@H]5[C@@H](O)[C@@H](C)CN5C(=O)[C@H]([C@@H](C)O)NC(=O)[C@H]([C@H](O)[C@@H](O)c5ccc(O)cc5)NC(=O)[C@@H]5C[C@@H](O)CN5C(=O)[C@H]([C@@H](C)O)NC4=O)cc3)cc2)cc1 [CD101] ({pTerphenylCO(4''-OnC5H11)}-[Orn(4R-OH,5R-OCH2CH2NMe3+)]T[Hyp][hTyr(3S-OH,4S-OH)]T[Pro(3S-OH,4S-Me)]; lactam 1-C) , state its measured half-life.
Response: ~1500 min
